Numbers sourced from the supplement of paper PMC9112550.

Quick reference for shrunken log2 fold change among some sequences
test system: Escherichia coli TOP10; assay: shrunken log2 fold change of peptide-encoding DNA abundance (4.5 h post-induction vs induction); higher = less antimicrobial activity (less host growth inhibition); conditions: time post-induction: 4.5 h; library: site-saturation at positions 5, 18, 19, 20

{"ordered_residues": "RRIRWRPPRLPRPRPRPHGCPRP", "shrunken log2 fold change": 0.0126}
{"ordered_residues": "RRIRYRPPRLPRPRPRPQNDPRP", "shrunken log2 fold change": -1.63}
{"ordered_residues": "RRIRQRPPRLPRPRPRPHKAPRP", "shrunken log2 fold change": -0.0398}
{"ordered_residues": "RRIRTRPPRLPRPRPRPCYDPRP", "shrunken log2 fold change": -0.127}
{"ordered_residues": "RRIRPRPPRLPRPRPRPWFTPRP", "shrunken log2 fold change": -0.0465}
{"ordered_residues": "RRIRYRPPRLPRPRPRPVCRPRP", "shrunken log2 fold change": -0.0607}
{"ordered_residues": "RRIRLRPPRLPRPRPRPQRFPRP", "shrunken log2 fold change": -0.142}
{"ordered_residues": "RRIRNRPPRLPRPRPRPWLKPRP", "shrunken log2 fold change": -0.0113}
{"ordered_residues": "RRIRDRPPRLPRPRPRPFRCPRP", "shrunken log2 fold change": -0.0101}
{"ordered_residues": "RRIRRRPPRLPRPRPRPAYNPRP", "shrunken log2 fold change": -0.28}
{"ordered_residues": "RRIRWRPPRLPRPRPRPKYCPRP", "shrunken log2 fold change": -0.245}
{"ordered_residues": "RRIRARPPRLPRPRPRPSIMPRP", "shrunken log2 fold change": -0.178}
{"ordered_residues": "RRIRIRPPRLPRPRPRPQCCPRP", "shrunken log2 fold change": -0.0258}
{"ordered_residues": "RRIRPRPPRLPRPRPRPCNVPRP", "shrunken log2 fold change": -0.314}
{"ordered_residues": "RRIRTRPPRLPRPRPRPHPSPRP", "shrunken log2 fold change": 0.00449}

----------
Quick reference for shrunken log2 fold change among some sequences
system: Escherichia coli TOP10; experiment: shrunken log2 fold change of peptide-encoding DNA abundance (4.5 h post-induction vs induction); higher = less antimicrobial activity (less host growth inhibition); settings: time post-induction: 4.5 h; library: site-saturation at positions 5, 18, 19, 20
observation_type: shrunken log2 fold change

{"ordered_residues": "RRIRWRPPRLPRPRPRPGCYPRP", "observation_type": "shrunken log2 fold change", "result_value": -0.0343}
{"ordered_residues": "RRIRKRPPRLPRPRPRPFHPPRP", "observation_type": "shrunken log2 fold change", "result_value": -0.158}
{"ordered_residues": "RRIRQRPPRLPRPRPRPPCQPRP", "observation_type": "shrunken log2 fold change", "result_value": 0.0396}
{"ordered_residues": "RRIRTRPPRLPRPRPRPNTRPRP", "observation_type": "shrunken log2 fold change", "result_value": -0.318}
{"ordered_residues": "RRIRGRPPRLPRPRPRPTLLPRP", "observation_type": "shrunken log2 fold change", "result_value": 0.884}
{"ordered_residues": "RRIRSRPPRLPRPRPRPNYIPRP", "observation_type": "shrunken log2 fold change", "result_value": -0.757}
{"ordered_residues": "RRIRQRPPRLPRPRPRPKDSPRP", "observation_type": "shrunken log2 fold change", "result_value": -0.135}
{"ordered_residues": "RRIRYRPPRLPRPRPRPPSYPRP", "observation_type": "shrunken log2 fold change", "result_value": -0.156}
{"ordered_residues": "RRIRWRPPRLPRPRPRPVNYPRP", "observation_type": "shrunken log2 fold change", "result_value": -0.122}
{"ordered_residues": "RRIRCRPPRLPRPRPRPDQLPRP", "observation_type": "shrunken log2 fold change", "result_value": 0.101}
{"ordered_residues": "RRIRDRPPRLPRPRPRPTPNPRP", "observation_type": "shrunken log2 fold change", "result_value": 0.272}
{"ordered_residues": "RRIRFRPPRLPRPRPRPWTTPRP", "observation_type": "shrunken log2 fold change", "result_value": -0.0381}
{"ordered_residues": "RRIRFRPPRLPRPRPRPTAIPRP", "observation_type": "shrunken log2 fold change", "result_value": -0.0113}
{"ordered_residues": "RRIRQRPPRLPRPRPRPPEPPRP", "observation_type": "shrunken log2 fold change", "result_value": 0.834}
{"ordered_residues": "RRIRGRPPRLPRPRPRPFGKPRP", "observation_type": "shrunken log2 fold change", "result_value": -0.144}

----------
Quick reference for shrunken log2 fold change among some sequences
tested on: Escherichia coli TOP10; assay: shrunken log2 fold change of peptide-encoding DNA abundance (4.5 h post-induction vs induction); higher = less antimicrobial activity (less host growth inhibition); details: time post-induction: 4.5 h; library: site-saturation at positions 5, 18, 19, 20;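 also: peptides expressed intracellularly from a pBAD plasmid library in pooled LB shake-flask culture, induced with 0.3% L-arabinose, DNA abundance read by NGS, three biological replicates, DESeq2 with apeglm shrinkage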
observation_type: shrunken log2 fold change

{"ordered_residues": "RRIRCRPPRLPRPRPRPCGSPRP", "observation_type": "shrunken log2 fold change", "result_value": -0.0815}
{"ordered_residues": "RRIRSRPPRLPRPRPRPVCMPRP", "observation_type": "shrunken log2 fold change", "result_value": -0.053}
{"ordered_residues": "RRIRVRPPRLPRPRPRPHVQPRP", "observation_type": "shrunken log2 fold change", "result_value": -0.0929}
{"ordered_residues": "RRIRHRPPRLPRPRPRPWKKPRP", "observation_type": "shrunken log2 fold change", "result_value": -0.0699}
{"ordered_residues": "RRIRMRPPRLPRPRPRPDMCPRP", "observation_type": "shrunken log2 fold change", "result_value": 1.86}
{"ordered_residues": "RRIRCRPPRLPRPRPRPHAHPRP", "observation_type": "shrunken log2 fold change", "result_value": -0.182}
{"ordered_residues": "RRIRNRPPRLPRPRPRPMYDPRP", "observation_type": "shrunken log2 fold change", "result_value": 0.0456}
{"ordered_residues": "RRIRPRPPRLPRPRPRPPHYPRP", "observation_type": "shrunken log2 fold change", "result_value": 0.457}
{"ordered_residues": "RRIRPRPPRLPRPRPRPMFFPRP", "observation_type": "shrunken log2 fold change", "result_value": -0.207}
{"ordered_residues": "RRIRFRPPRLPRPRPRPDVEPRP", "observation_type": "shrunken log2 fold change", "result_value": 0.00816}
{"ordered_residues": "RRIRERPPRLPRPRPRPEESPRP", "observation_type": "shrunken log2 fold change", "result_value": 0.148}
{"ordered_residues": "RRIRIRPPRLPRPRPRPKQSPRP", "observation_type": "shrunken log2 fold change", "result_value": -0.384}
{"ordered_residues": "RRIRTRPPRLPRPRPRPWRGPRP", "observation_type": "shrunken log2 fold change", "result_value": 0.123}
{"ordered_residues": "RRIRRRPPRLPRPRPRPDRWPRP", "observation_type": "shrunken log2 fold change", "result_value": 0.957}
{"ordered_residues": "RRIRRRPPRLPRPRPRPMYTPRP", "observation_type": "shrunken log2 fold change", "result_value": -0.219}
{"ordered_residues": "RRIRNRPPRLPRPRPRPDTAPRP", "observation_type": "shrunken log2 fold change", "result_value": -0.235}
{"ordered_residues": "RRIRNRPPRLPRPRPRPPGDPRP", "observation_type": "shrunken log2 fold change", "result_value": 0.127}
{"ordered_residues": "RRIRVRPPRLPRPRPRPTIRPRP", "observation_type": "shrunken log2 fold change", "result_value": 0.0315}
{"ordered_residues": "RRIRCRPPRLPRPRPRPCRIPRP", "observation_type": "shrunken log2 fold change", "result_value": -0.271}
{"ordered_residues": "RRIRYRPPRLPRPRPRPYPAPRP", "observation_type": "shrunken log2 fold change", "result_value": -0.641}
{"ordered_residues": "RRIRERPPRLPRPRPRPKWMPRP", "observation_type": "shrunken log2 fold change", "result_value": -0.0884}
{"ordered_residues": "RRIRNRPPRLPRPRPRPLWSPRP", "observation_type": "shrunken log2 fold change", "result_value": -0.0388}
{"ordered_residues": "RRIRDRPPRLPRPRPRPCHCPRP", "observation_type": "shrunken log2 fold change", "result_value": -0.158}
{"ordered_residues": "RRIRNRPPRLPRPRPRPKGTPRP", "observation_type": "shrunken log2 fold change", "result_value": 0.118}
{"ordered_residues": "RRIRVRPPRLPRPRPRPWKDPRP", "observation_type": "shrunken log2 fold change", "result_value": -0.00963}
{"ordered_residues": "RRIRTRPPRLPRPRPRPTIWPRP", "observation_type": "shrunken log2 fold change", "result_value": 0.03}
{"ordered_residues": "RRIRCRPPRLPRPRPRPNHDPRP", "observation_type": "shrunken log2 fold change", "result_value": -0.589}
{"ordered_residues": "RRIRVRPPRLPRPRPRPDGSPRP", "observation_type": "shrunken log2 fold change", "result_value": -0.0225}
{"ordered_residues": "RRIRKRPPRLPRPRPRPDVHPRP", "observation_type": "shrunken log2 fold change", "result_value": -0.00151}
{"ordered_residues": "RRIRMRPPRLPRPRPRPIWSPRP", "observation_type": "shrunken log2 fold change", "result_value": 0.0584}
{"ordered_residues": "RRIRDRPPRLPRPRPRPSAGPRP", "observation_type": "shrunken log2 fold change", "result_value": 0.67}
{"ordered_residues": "RRIRQRPPRLPRPRPRPEPDPRP", "observation_type": "shrunken log2 fold change", "result_value": 0.271}
